System: peas
experiment: Herbicidal bioassay, peas (% necrosis)
Format: in vivo
measurementParameters: Dose 0.00001, Day 10
observationType: Sum of % necrosis in Peas

>>> print(df.to_string())
                                   compound                result
0  CC(=O)OCC(C)Oc1ccc(Oc2ccc(C(F)(F)F)cn2)cc1 (stereo not shown)  B (50%-80% necrosis)
1  CCOC(=O)C(C)Oc1ccc(Oc2ccc(C(F)(F)F)cn2)cc1 (stereo not shown)  B (50%-80% necrosis)
2  CC(Oc1ccc(Oc2ccc(C(F)(F)F)cn2)cc1)C(=O)O (stereo not shown) [Compound 25, Fluazifop, reference compound]  B (50%-80% necrosis)

====

System: peas
experiment: Herbicidal bioassay, peas (% necrosis)
Assay type: in vivo
measurementParameters: Dose 0.00005, Day 14
observationType: Sum of % necrosis in Peas

>>> df
                                   compound                 result
0  CCOC(=O)C(C)Oc1ccc(Oc2ccc(C(F)(F)F)cn2)cc1 (stereo not shown)  A (over 80% necrosis)
1  CC(C=O)Oc1ccc(Oc2ccc(C(F)(F)F)cn2)cc1 (stereo not shown)  A (over 80% necrosis)
2  CC(=O)OCC(C)Oc1ccc(Oc2ccc(C(F)(F)F)cn2)cc1 (stereo not shown)  A (over 80% necrosis)

====

System: peas
experiment: Herbicidal bioassay, peas (% necrosis)
Type: in vivo
measurementParameters: Dose 0.000001, Day 21
observationType: Sum of % necrosis in Peas

                                   molecule                result
0  CC(C=O)Oc1ccc(Oc2ccc(C(F)(F)F)cn2)cc1 (stereo not drawn)  B (50%-80% necrosis)
1  CC(/C=N/O)Oc1ccc(Oc2ccc(C(F)(F)F)cn2)cc1 (stereo not drawn)  B (50%-80% necrosis)

====

Test system: barley
experiment: Herbicidal bioassay, barley (% necrosis)
Assay type: in vivo
measurementParameters: Dose 0.0005, Day 10
observationType: Sum of % necrosis in barley

molecule	observationType	result
CC(/C=N/O)Oc1ccc(Oc2ccc(C(F)(F)F)cn2)cc1 (stereo not shown) [Compound 64]	Sum of % necrosis in barley	B (50%-80% necrosis)
COC(=O)c1ccc(CNS(C)(=O)=O)cc1S(=O)(=O)NC(=O)Nc1nc(OC)cc(OC)n1 [Mesosulfuron (6), Mesosulfuron methyl ester, reference compound]	Sum of % necrosis in barley	B (50%-80% necrosis)

====

System: peas
experiment: Herbicidal bioassay, peas (% necrosis)
Type: in vivo
measurementParameters: Dose 0.000005, Day 21
observationType: Sum of % necrosis in Peas

>>> print(df.to_string())
                                   compound  assaysystem                 result
0  CC(=O)OCC(C)Oc1ccc(Oc2ccc(C(F)(F)F)cn2)cc1 (stereo not drawn) [Compound 63]         peas  A (over 80% necrosis)
1  CC(C=O)Oc1ccc(Oc2ccc(C(F)(F)F)cn2)cc1 (stereo not drawn) [Compound 28]         peas  A (over 80% necrosis)
